assay: Plasma pharmacokinetics of DMA; assay type: in vivo, mouse; conditions: Balb/c, mouse, plasma; 100 mg/kg oral
propertyName: Tmax (h)
Express it in h; write the number only.

Task: Give reported Tmax value for COc1ccc(-c2nc3cc(-c4nc5cc(N6CCN(C)CC6)ccc5[nH]4)ccc3[nH]2)cc1OC [DMA]
Result: 1.5

====

assay: Tissue bio-distribution and tissue pharmacokinetics of DMA; format: in vivo, mouse; settings: Balb/c, mouse, liver; Oral 100 mg/kg, 16 h; read-out: Tissue DMA concentration, Liver
propertyName: concentration at 16 h (ng/g)
Please state the figure in ng/g; there is no need to write the unit.

Task: State its concentration at 16 h for this molecule: COc1ccc(-c2nc3cc(-c4nc5cc(N6CCN(C)CC6)ccc5[nH]4)ccc3[nH]2)cc1OC
Result: 691

Attribution: patent US10016515B2
